src = PubChem BioAssay (NCI)

# Tested on: TK-10 renal
# Protocol Details: NCI tumour cell line growth inhibition, 48 h
Recorded TGI by entry
Value Kind: TGI (µM)

[[record]]
compound = "NC(=S)N/N=C(/CC(=O)c1ccc([N+](=O)[O-])cc1)C(=O)Nc1ncc([N+](=O)[O-])s1"
op = ">"
endpoint_value = 100

[[record]]
compound = "O=C1C2=C(C(=O)c3c(O)ccc(O)c31)N(c1ccc(N3CCOCC3)nc1)Cc1ccccc1O2"
op = "="
endpoint_value = 0.947

[[record]]
compound = "Cc1cccc(CN(C)c2ccc(CO)c(Cl)c2)c1"
op = "="
endpoint_value = 1.56

[[record]]
compound = "Oc1c(C(O)(c2ccccc2)c2ccc3ccccc3c2O)ccc2ccccc12"
op = "="
endpoint_value = 26.8

[[record]]
compound = "OC1CN(OC/C=C/c2ccccc2)CC(O)C1O (stereo not given)"
op = ">"
endpoint_value = 100


---

# Tested on: NCI-H460 lung
# Protocol Details: NCI tumour cell line growth inhibition, 48 h
Recorded TGI by entry
Value Kind: TGI

[[record]]
compound = "C1CNCCN2CCCNCCN(C1)CC2"
target_or_test_system = "NCI-H460 lung"
endpoint_value = "> 100 µM"

[[record]]
compound = "O=C1C(NS(=O)(=O)c2ccccc2)=C(n2cnc3ccccc32)C(=O)c2ccccc21"
target_or_test_system = "NCI-H460 lung"
endpoint_value = "> 100 µM"

[[record]]
compound = "COc1ccc(/C=C/c2cc(OC)c(O[Si](C)(C)C(C)(C)C)c(OC)c2)cc1"
target_or_test_system = "NCI-H460 lung"
endpoint_value = "> 100 µM"

[[record]]
compound = "CC1=NN(c2nc(N)nc(CS(C)(=O)=O)n2)C(C)(C)C1"
target_or_test_system = "NCI-H460 lung"
endpoint_value = "> 100 µM"

[[record]]
compound = "CC(=O)CC(=O)CCCC(=O)Nc1ccc(Cl)cc1C"
target_or_test_system = "NCI-H460 lung"
endpoint_value = "> 100 µM"

[[record]]
compound = "CN(CCCNC(=O)c1cn(C)c2c1ccc1cc(Cl)ccc12)CCCNC(=O)c1cn(C)c2c1ccc1cc(Cl)ccc12"
target_or_test_system = "NCI-H460 lung"
endpoint_value = "> 100 µM"

[[record]]
compound = "Nc1nnc2nc(CC(=O)/C=C/c3ccccc3)c(=O)[nH]n12"
target_or_test_system = "NCI-H460 lung"
endpoint_value = "> 100 µM"

[[record]]
compound = "CN(c1c(Cl)cccc1Cl)S(=O)(=O)c1ccccc1[N+](=O)[O-]"
target_or_test_system = "NCI-H460 lung"
endpoint_value = "> 100 µM"

[[record]]
compound = "CC1=C(C(=O)Nc2cccc(C(F)(F)F)c2)C(c2ccc(O)cc2)C(C(=O)Nc2cccc(C(F)(F)F)c2)=C(C)N1"
target_or_test_system = "NCI-H460 lung"
endpoint_value = "43.1 µM"

[[record]]
compound = "CS(C)(=O)=N/C=C\\C(=O)C(Cl)(Cl)Cl"
target_or_test_system = "NCI-H460 lung"
endpoint_value = "> 100 µM"

[[record]]
compound = "OC1CN(OC/C=C/c2ccccc2)CC(O)C1O (centres undefined)"
target_or_test_system = "NCI-H460 lung"
endpoint_value = "> 100 µM"

[[record]]
compound = "COc1ccc(CN2c3ccccc3Sc3ccccc32)cc1F"
target_or_test_system = "NCI-H460 lung"
endpoint_value = "> 100 µM"

[[record]]
compound = "NCCCNCCSSCc1ccccc1CSSCCNCCCN"
target_or_test_system = "NCI-H460 lung"
endpoint_value = "> 100 µM"

[[record]]
compound = "Cc1c2c(c(C)c3c[n+](C)ccc13)Oc1ccccc1O2"
target_or_test_system = "NCI-H460 lung"
endpoint_value = "16.4 µM"

[[record]]
compound = "Cc1cc(C)nc(NS(=O)(=O)c2ccc(Nc3c4ccccc4nc4c(C(=O)NCCN(C)C)ccc(Cl)c34)cc2)n1"
target_or_test_system = "NCI-H460 lung"
endpoint_value = "2.7 µM"

[[record]]
compound = "O=C(O)CC(NC(=O)C(F)(F)F)C(=O)NC1Cc2ccccc2OC1=O (centres undefined)"
target_or_test_system = "NCI-H460 lung"
endpoint_value = "> 100 µM"

[[record]]
compound = "NC(=S)N/N=C(/CC(=O)c1ccc([N+](=O)[O-])cc1)C(=O)Nc1ncc([N+](=O)[O-])s1"
target_or_test_system = "NCI-H460 lung"
endpoint_value = "> 100 µM"

[[record]]
compound = "NC(CCCCCP(=O)(O)O)C(=O)O (centres undefined)"
target_or_test_system = "NCI-H460 lung"
endpoint_value = "> 100 µM"

[[record]]
compound = "CSCCC(NC(=O)C(Cc1ccccc1)NC(=O)CNC(=O)CNC(=O)C(N)Cc1ccc(O)cc1)C(=O)O (centres undefined)"
target_or_test_system = "NCI-H460 lung"
endpoint_value = "> 100 µM"

[[record]]
compound = "COc1ccc(Nc2c3ccccc3nc3c2c2ccccc2n3C)cc1"
target_or_test_system = "NCI-H460 lung"
endpoint_value = "> 100 µM"

[[record]]
compound = "CCCNc1nc(N(C)O)nc(N(C)O)n1"
target_or_test_system = "NCI-H460 lung"
endpoint_value = "> 56.8 µM"

[[record]]
compound = "Cc1cccc(CN(C)c2ccc(CO)c(Cl)c2)c1"
target_or_test_system = "NCI-H460 lung"
endpoint_value = "15.8 µM"

[[record]]
compound = "COc1ccc(C2CCc3nc4nc(N)nc(N)c4cc3C2)cc1 (centres undefined)"
target_or_test_system = "NCI-H460 lung"
endpoint_value = "> 100 µM"

[[record]]
compound = "CC(=O)OCC1C(C(C)OC(C)=O)CCC2C1CCC1(C)C(OC(C)=O)CCC21 (centres undefined)"
target_or_test_system = "NCI-H460 lung"
endpoint_value = "31.8 µM"

[[record]]
compound = "CC(=O)Nc1ccc2nncnc2c1"
target_or_test_system = "NCI-H460 lung"
endpoint_value = "> 100 µM"

[[record]]
compound = "COc1ccc2c(c1)/C(=C(\\C(Cl)=C(Cl)Cl)[N+](=O)[O-])N2"
target_or_test_system = "NCI-H460 lung"
endpoint_value = "> 100 µM"

[[record]]
compound = "C#CCNC(=O)CCC(N)C(=O)O (centres undefined)"
target_or_test_system = "NCI-H460 lung"
endpoint_value = "> 100 µM"

[[record]]
compound = "CC(C)c1cc(C(C)C)c(S(=O)(=O)NN)c(C(C)C)c1"
target_or_test_system = "NCI-H460 lung"
endpoint_value = "> 100 µM"

[[record]]
compound = "O=C(N=Nc1ccc([N+](=O)[O-])cc1)NNc1ccc([N+](=O)[O-])cc1"
target_or_test_system = "NCI-H460 lung"
endpoint_value = "47.2 µM"


---

# System: PC-3 prostate
# Protocol Details: NCI tumour cell line growth inhibition, 48 h
Recorded TGI by entry
Value Kind: TGI (µM)

[[record]]
compound = "C/C(Cl)=N\\OC(=O)Nc1ccc([N+](=O)[O-])cc1"
target_or_test_system = "PC-3 prostate"
op = "="
endpoint_value = 29.9

[[record]]
compound = "CCOc1ccc(Cc2nccc3cc(OCC)c(OCC)cc23)cc1OCC"
target_or_test_system = "PC-3 prostate"
op = "="
endpoint_value = 33.4

[[record]]
compound = "N/C(=N\\O)c1ncc(-c2ccc(C(F)(F)F)cc2)c(NC2CCCCCC2)n1"
target_or_test_system = "PC-3 prostate"
op = "="
endpoint_value = 12.1

[[record]]
compound = "O=C(CC(=O)c1ccncc1)c1ccccc1"
target_or_test_system = "PC-3 prostate"
op = ">"
endpoint_value = 100

[[record]]
compound = "NC(CCCCCP(=O)(O)O)C(=O)O (stereo not given)"
target_or_test_system = "PC-3 prostate"
op = ">"
endpoint_value = 100


---

Recorded TGI by entry
# System: SW-620 colon
# Protocol Details: NCI tumour cell line growth inhibition, 48 h
Value Kind: TGI (µM)

[[record]]
compound = "CCC(=O)C1=C(OC(C)=O)C2Cc3c(n(C)c4ccccc34)C(C1)N2C (configuration not stated)"
op = "="
endpoint_value = 90.1

[[record]]
compound = "COc1ccc2nc(-c3ccc(OC(=O)N(C)C)cc3)cn2c1"
op = ">"
endpoint_value = 100

[[record]]
compound = "N#Cc1ccc(Oc2nccc(-c3c(-c4ccc(F)cc4)ncn3C3CCNCC3)n2)cc1"
op = ">"
endpoint_value = 25

[[record]]
compound = "Cc1c2c(c(C)c3c[n+](C)ccc13)Oc1ccccc1O2"
op = ">"
endpoint_value = 52.8

[[record]]
compound = "COc1ccc(/C=C2\\N=C(c3ccccc3)OC2=O)c(OCc2ccccc2)c1"
op = ">"
endpoint_value = 100

[[record]]
compound = "Cc1ccc2nc3c(Cl)cc(=O)cc-3sc2c1"
op = "="
endpoint_value = 43.5

[[record]]
compound = "Cc1cccc(CN(C)c2ccc(CO)c(Cl)c2)c1"
op = ">"
endpoint_value = 100

[[record]]
compound = "CC(=O)Nc1ccc2nncnc2c1"
op = ">"
endpoint_value = 100

[[record]]
compound = "CCCCCCCCCCCCCCCCOC(=O)C(C(=O)OCCCCCCCCCCCCCCCC)[N+](C)(C)CCOC(C)=O"
op = "="
endpoint_value = 52.4

[[record]]
compound = "COC(=O)[C@]12CC[C@@H](C)[C@H](C)[C@@H]1C1=CC[C@@H]3[C@@]4(C)C[C@@H](OC(=O)c5ccco5)[C@H](O)[C@@](C)(CO)[C@@H]4[C@H](O)C[C@@]3(C)[C@]1(C)CC2"
op = "="
endpoint_value = 3.54

[[record]]
compound = "CCN1CCN(CCOc2ccc(CNc3ccc4nc(CCC5CCCCC5)[nH]c4c3)cc2)CC1"
op = "="
endpoint_value = 4.14

[[record]]
compound = "O=C(NC(=O)c1cn(CCN2CCNCC2)c(=O)[nH]c1=O)OCc1ccccc1"
op = ">"
endpoint_value = 100

[[record]]
compound = "C/C(CN1C(=O)c2ccccc2C1=O)=N\\NS(=O)(=O)c1ccccc1"
op = ">"
endpoint_value = 100

[[record]]
compound = "C/C(=N/O)C1CC=C(S(=O)(=O)c2ccccc2)C1 (configuration not stated)"
op = ">"
endpoint_value = 100

[[record]]
compound = "CCN(CC)CC(O)c1ccc2ccc3ccccc3c2c1 (configuration not stated)"
op = "="
endpoint_value = 34.9

[[record]]
compound = "NC(=O)c1ccccc1NC(=O)C(=O)C(C(=O)c1ccc2ccccc2c1)C1OC(=O)c2ccccc21 (configuration not stated)"
op = "="
endpoint_value = 27.9

[[record]]
compound = "O=S(=O)(NCCNc1nccc(-c2c(-c3cccc(O)c3)nc3sccn23)n1)c1ccc(F)cc1"
op = "="
endpoint_value = 36.9

[[record]]
compound = "COC(=O)C12CCC(C(=O)OC)(Cc3c(c4ccccc4n3S(=O)(=O)c3ccccc3)C1)C2=O (configuration not stated)"
op = ">"
endpoint_value = 100

[[record]]
compound = "COC1/C=C\\C=C(/C)C(=O)NC2=CC(=O)C=C(C2=O)C(OC)C(C)CC(OC)C(OC)C(C)/C=C(/C)C1OC(N)=O (configuration not stated)"
op = "="
endpoint_value = 2.8

[[record]]
compound = "CC(C)=CC/C=C(/C)[C@H]1CC[C@]2(C)[C@@H]1CC[C@@H]1[C@@]3(C)CCC(=O)NC(C)(C)[C@@H]3CC[C@]12C"
op = "="
endpoint_value = 43.9

[[record]]
compound = "CSCCC(NC(=O)C(Cc1ccccc1)NC(=O)CNC(=O)CNC(=O)C(N)Cc1ccc(O)cc1)C(=O)O (configuration not stated)"
op = ">"
endpoint_value = 100

[[record]]
compound = "O=C(N[C@H](c1ccc(Cl)c(Cl)c1)C1CNC1)c1ccc2cnccc2c1"
op = "="
endpoint_value = 15.2

[[record]]
compound = "C=CCCCCOC1C=CC(OC(C)=O)C(COC(C)=O)O1 (configuration not stated)"
op = ">"
endpoint_value = 100

[[record]]
compound = "O=C1NC(=NCc2cccs2)SC1Cc1ccc2ncccc2c1 (configuration not stated)"
op = ">"
endpoint_value = 25

[[record]]
compound = "CC(=O)CC(=O)CCCC(=O)Nc1ccc(Cl)cc1C"
op = ">"
endpoint_value = 100

[[record]]
compound = "CSC1=N/C(=C\\c2cccs2)C(=O)N1CN1CCOCC1"
op = ">"
endpoint_value = 100

[[record]]
compound = "O=C(CCCn1c2c(sc3ncccc32)c(=O)n2nnc(-c3ccccc3)c12)NCCc1cnc[nH]1"
op = "="
endpoint_value = 14.4

[[record]]
compound = "C=C1c2nc3ccccc3n2C=C(c2ccc(Cl)cc2)N1c1ccc(OCCN2CCOCC2)cc1"
op = ">"
endpoint_value = 100

[[record]]
compound = "O=[N+]([O-])c1cc2n[nH]nc2c2nonc12"
op = ">"
endpoint_value = 100

[[record]]
compound = "Cc1ccc(SSCCCS(=O)O)cc1"
op = ">"
endpoint_value = 100

[[record]]
compound = "CCOc1ccc(Cc2nccc3cc(OCC)c(OCC)cc23)cc1OCC"
op = "="
endpoint_value = 24.1

[[record]]
compound = "O=C1NC(=NCC(CO)c2ccccc2)S/C1=C\\c1ccc2ncccc2c1 (configuration not stated)"
op = ">"
endpoint_value = 25

